Target: DAPK3 (DAPK3A) (Homo sapiens, UniProt O43293)
Construct: purchased in-house DSF kinase panel (SGC-style construct names; the trailing letter is the construct ID)
Sequence (O43293 whole entry): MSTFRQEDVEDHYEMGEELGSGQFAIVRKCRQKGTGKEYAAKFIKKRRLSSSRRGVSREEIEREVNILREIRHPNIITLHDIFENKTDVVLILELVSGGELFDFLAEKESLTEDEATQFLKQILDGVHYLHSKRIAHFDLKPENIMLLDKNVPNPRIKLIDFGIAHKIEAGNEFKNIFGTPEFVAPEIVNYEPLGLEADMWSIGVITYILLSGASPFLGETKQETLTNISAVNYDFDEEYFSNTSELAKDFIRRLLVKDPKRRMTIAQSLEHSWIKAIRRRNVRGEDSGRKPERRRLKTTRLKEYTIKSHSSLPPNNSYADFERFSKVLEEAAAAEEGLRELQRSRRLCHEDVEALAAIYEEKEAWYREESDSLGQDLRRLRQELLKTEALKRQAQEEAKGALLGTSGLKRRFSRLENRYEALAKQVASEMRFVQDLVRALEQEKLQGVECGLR
Experiment: DSF Tm panel
Type: binding
Conditions: 10 μM compound
quantity: ΔTm at 10 µM (°C)

| compound | ΔTm at 10 µM, °C |
| --- | --- |
| O=C(NCc1ccccc1C(F)(F)F)Nc1ccc2cc1OCCOCCNc1ccn3ncc-2c3n1 [compound 27] | 1.2 |

I. Cc1cc(Br)ccc1CNC(=O)Nc1ccc2cc1OCCOCCNc1ccn3ncc-2c3n1 [compound 24]
II. COc1ccc(CNC(=O)Nc2ccc3cc2OCCOCCNc2ccn4ncc-3c4n2)cc1F [compound 32]
III. COc1cc(CNC(=O)Nc2ccc3cc2OCCOCCNc2ccn4ncc-3c4n2)ccc1F [compound 33]
Exam item: Order the items by recorded ΔTm at 10 µM; the first position goes to the largest value. Kindly provide the labels arranged according to the requested ordering.
Marked response: III, II, I
